These measurements were taken from patent US7932405B2.

# MEASUREMENT_TARGET: vitamin K epoxide reductase (VKER) (Bos taurus)
# Sequence (Q6B4J2 1-163): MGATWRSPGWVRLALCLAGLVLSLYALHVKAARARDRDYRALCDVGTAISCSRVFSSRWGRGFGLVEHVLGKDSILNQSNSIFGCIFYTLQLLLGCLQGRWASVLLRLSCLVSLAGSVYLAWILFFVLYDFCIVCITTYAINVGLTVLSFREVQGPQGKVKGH
Entries and their measured pIC50 follow.
// scale note: pIC50 = -log10(conc_M); give the bare number

Query: Recorded pIC50 for CC(OC(=O)c1ccc(Cc2c(O)c3ccccc3oc2=O)cc1)C(F)(F)C(F)(F)F (centres unmarked) [drawing 32] , please?
Result: 5.38

Query: Param item = CC(OC(=O)c1ccc(Cc2c(O)c3ccccc3oc2=O)cc1)C(F)(F)C(F)(F)F (centres unmarked) [drawing 31] ; retrieve measured pIC50.
Result: 5.40

Query: Query (compound): CC(OC(=O)c1ccc(Cc2c(O)c3ccccc3oc2=O)cc1)(C(F)(F)F)C(F)(F)F [drawing 30] ; field requested: pIC50
Result: 5.29

Query: For CC(=O)CC(c1ccccc1)c1c(O)c2ccccc2oc1=O (centres unmarked) [Warfarin, reference compound] , what is its reported pIC50?
Result: 5.52

* * *

# System: pooled human liver microsomes (esterase)
# MEASUREMENT_DESCRIPTION: Metabolism in pooled human liver microsomes without NADPH (esterase alone)
# Type: in vitro ADME
# MEASUREMENT_PARAMETERS: 2 μM final concentration, 90 min
PROPERTY_LABEL: Esterase % Stability at 90 min (%)
Report the figure in % without appending any unit label.

CC(OC(=O)c1ccc(Cc2c(O)c3ccccc3oc2=O)cc1)C(F)(F)C(F)(F)F (stereo not shown) [drawing 32] ... 27
CC(OC(=O)c1ccc(Cc2c(O)c3ccccc3oc2=O)cc1)C(F)(F)C(F)(F)F (stereo not shown) [drawing 31] ... 86
CC(OC(=O)c1ccc(Cc2c(O)c3ccccc3oc2=O)cc1)(C(F)(F)F)C(F)(F)F [drawing 30] ... 96

Next, consider the following molecule.
Query: Notebook: pull reported Esterase % Stability at 90 min for pooled human liver microsomes (esterase), entry CC(OC(=O)c1ccc(Cc2c(O)c3ccccc3oc2=O)cc1)C(F)(F)C(F)(F)F (racemic)
Result: 70

* * *

# MEASUREMENT_TARGET: human IKr (hERG) (Homo sapiens)
# Sequence (Q12809 whole entry): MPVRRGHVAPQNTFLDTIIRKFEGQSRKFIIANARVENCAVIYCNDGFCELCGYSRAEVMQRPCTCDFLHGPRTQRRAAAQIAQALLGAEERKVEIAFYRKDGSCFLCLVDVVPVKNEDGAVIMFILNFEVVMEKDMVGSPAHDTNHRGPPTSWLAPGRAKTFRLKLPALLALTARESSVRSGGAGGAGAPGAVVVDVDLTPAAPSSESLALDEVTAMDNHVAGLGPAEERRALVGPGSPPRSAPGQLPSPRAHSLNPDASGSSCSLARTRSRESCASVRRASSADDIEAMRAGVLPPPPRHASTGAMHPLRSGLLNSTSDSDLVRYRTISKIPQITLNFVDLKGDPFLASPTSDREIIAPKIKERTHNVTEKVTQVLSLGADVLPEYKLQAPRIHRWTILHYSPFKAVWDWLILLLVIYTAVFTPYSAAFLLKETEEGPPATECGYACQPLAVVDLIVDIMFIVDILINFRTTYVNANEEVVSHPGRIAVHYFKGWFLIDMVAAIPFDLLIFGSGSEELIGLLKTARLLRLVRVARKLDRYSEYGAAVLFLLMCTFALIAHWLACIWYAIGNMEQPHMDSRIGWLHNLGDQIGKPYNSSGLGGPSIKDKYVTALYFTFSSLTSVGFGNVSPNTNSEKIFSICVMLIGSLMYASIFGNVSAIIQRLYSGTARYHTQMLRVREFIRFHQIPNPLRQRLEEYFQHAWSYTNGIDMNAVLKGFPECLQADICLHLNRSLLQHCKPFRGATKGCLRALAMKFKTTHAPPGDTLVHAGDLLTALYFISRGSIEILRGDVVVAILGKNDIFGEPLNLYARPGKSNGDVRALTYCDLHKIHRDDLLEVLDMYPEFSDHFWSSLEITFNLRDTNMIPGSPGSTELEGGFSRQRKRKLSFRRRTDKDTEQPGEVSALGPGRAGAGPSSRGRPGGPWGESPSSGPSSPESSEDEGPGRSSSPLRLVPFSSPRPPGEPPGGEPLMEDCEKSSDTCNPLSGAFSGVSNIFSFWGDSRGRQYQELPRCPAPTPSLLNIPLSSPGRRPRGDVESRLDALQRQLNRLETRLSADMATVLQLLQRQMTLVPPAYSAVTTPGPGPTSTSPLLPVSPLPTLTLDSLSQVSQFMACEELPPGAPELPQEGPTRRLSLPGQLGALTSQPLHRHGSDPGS
# MEASUREMENT_DESCRIPTION: Whole-cell patch-clamp recording of IKr in stably transfected HEK-293 cells expressing the hERG gene
pIC50: −log10 of the molar value.
PROPERTY_LABEL: pIC50

O=C(O)c1ccc(Cc2c(O)c3ccccc3oc2=O)cc1 ... < 3.00

Query: Look up pIC50 for this compound: CC(OC(=O)c1ccc(Cc2c(O)c3ccccc3oc2=O)cc1)(C(F)(F)F)C(F)(F)F
Result: < 4.00

* * *

Below is a list of entries, each paired with its recorded half-life at 2 μM value.
# MEASUREMENT_DESCRIPTION: Metabolism in pooled human liver microsomes with NADPH (CYP450 + esterase)
# Format: in vitro ADME
# MEASUREMENT_PARAMETERS: human, pooled human liver microsomes with NADPH regenerating system, pH 7.4, 2 μM final concentration, read-out: CYP + Esterase Est T½

CC(OC(=O)c1ccc(Cc2c(O)c3ccccc3oc2=O)cc1)C(F)(F)C(F)(F)F (racemic) ... > 1.5 h
O=C(O)c1ccc(Cc2c(O)c3ccccc3oc2=O)cc1 [drawing 28] ... > 1.5 h

Query: Report half-life at 2 μM for CC(OC(=O)c1ccc(Cc2c(O)c3ccccc3oc2=O)cc1)(C(F)(F)F)C(F)(F)F [drawing 30] please.
Result: > 1.5 h
